- measured-on: FBW7^ARG (RLFBW7) alone (Homo sapiens, UniProt Q969H0, R505L)
- Construct: GST (TEV site and flexible linker) (N, cleaved yes); made in house; host or cells: SF9 insect cells (baculovirus)
- Sequence (Q969H0 64-707 R505L): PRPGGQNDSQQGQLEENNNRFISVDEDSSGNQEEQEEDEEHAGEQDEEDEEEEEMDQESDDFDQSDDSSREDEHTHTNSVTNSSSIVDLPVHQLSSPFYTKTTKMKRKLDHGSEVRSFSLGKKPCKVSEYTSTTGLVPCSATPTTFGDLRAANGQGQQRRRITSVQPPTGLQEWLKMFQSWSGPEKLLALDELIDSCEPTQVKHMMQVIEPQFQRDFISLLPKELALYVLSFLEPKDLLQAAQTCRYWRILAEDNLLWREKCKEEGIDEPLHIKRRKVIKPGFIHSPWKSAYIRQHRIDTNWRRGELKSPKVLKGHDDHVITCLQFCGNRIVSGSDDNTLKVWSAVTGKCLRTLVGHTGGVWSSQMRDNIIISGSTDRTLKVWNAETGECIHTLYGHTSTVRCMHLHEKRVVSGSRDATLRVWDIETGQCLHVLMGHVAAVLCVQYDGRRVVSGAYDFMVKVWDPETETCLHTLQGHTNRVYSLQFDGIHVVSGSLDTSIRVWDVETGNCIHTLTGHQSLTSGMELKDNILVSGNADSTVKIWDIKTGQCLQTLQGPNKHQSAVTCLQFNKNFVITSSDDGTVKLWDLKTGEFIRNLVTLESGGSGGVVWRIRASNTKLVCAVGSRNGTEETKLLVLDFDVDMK
- Sequence (P63208 2-163 partner): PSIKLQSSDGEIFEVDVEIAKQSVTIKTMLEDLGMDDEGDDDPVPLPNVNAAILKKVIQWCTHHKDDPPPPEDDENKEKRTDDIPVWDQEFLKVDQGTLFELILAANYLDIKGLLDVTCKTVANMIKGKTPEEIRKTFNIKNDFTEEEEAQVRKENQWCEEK
- assay-procedure: Counterscreen 1 ALPHAscreen with FBW7^ARG alone (CSRUN1/DCSRUN1)
- Assay type: binding
- condition: dose-response counterscreen, read-out: RLFBW7 ACT DCSRUN1 Averaged Max % Response
readout-type: Emax (%)

- compound: "CCOc1ccc(Br)cc1C1C2=C(CCCC2=O)N(CC(=O)O)C2=C1C(=O)CCC2 [SR-01000476712-1]"
  unit-of-measure: "%"
  Emax: 1.87

[1] Cc1ccc2nc(SCC(=O)Nc3ncc(C)s3)c(C#N)cc2c1 [SR-01000340506-1]
[2] Cc1ccnc(N2CCC(C(=O)Nc3ccccc3Br)CC2)n1 [SR-01000330228-1]
Q: Look at 1 and 2 . Which one has the lower recorded Emax number? Record your answer as the label of the chosen record.
A: 2
(2: 0.25%, 1: 35.6%)

[I] O=C(Cc1ccc(Br)cc1)N1CCC(c2nc(O)c3cnccc3n2)C1.O=C(O)C(F)(F)F (centres unmarked) [SR-00000005455-1]
[II] CCN(CC)c1ccc2cc(-c3nc(C)cs3)c(=O)oc2c1 [SR-01000312020-1]
[III] CC1=C(C(=O)OCc2ccccc2)C(c2cn(-c3ccccc3)nc2-c2ccc(F)cc2)C(C(=O)OCc2ccccc2)=C(C)N1 [SR-01000425637-1]
[IV] O=C([C@H]1CC[C@H](Nc2nccc(-c3ccc4nc(C5CC5)nc(O)c4c3)n2)CC1)N1CCCC1 [SR-00000008677-1]
[V] CCC(C)OC(=O)C1=C(C)NC2=C(C(=O)CC(c3ccc(Cl)cc3)C2)C1c1cccc(Cl)c1 (centres unmarked) [SR-01000422821-1]
Q: Highest Emax first, then in falling order down to the smallest. Put the labels in the requested order and list them out.
A: II, V, III, I, IV
